Molecular target: recombinant human MPST (3-mercaptopyruvate sulfurtransferase) (Homo sapiens, UniProt P25325)
Sequence (P25325 1-317 isoform P25325-2): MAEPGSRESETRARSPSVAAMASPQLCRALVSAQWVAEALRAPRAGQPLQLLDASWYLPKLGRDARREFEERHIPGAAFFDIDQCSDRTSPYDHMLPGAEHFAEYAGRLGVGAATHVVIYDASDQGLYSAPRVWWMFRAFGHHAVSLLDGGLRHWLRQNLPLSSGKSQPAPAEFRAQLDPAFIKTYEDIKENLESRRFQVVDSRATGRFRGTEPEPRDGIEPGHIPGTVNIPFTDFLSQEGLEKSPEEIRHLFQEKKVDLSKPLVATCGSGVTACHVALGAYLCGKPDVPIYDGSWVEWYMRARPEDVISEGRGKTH
Test: isothermal titration calorimetry
Recorded Metric: pKd
Give only the number. pKd is defined as minus log10 of concentration in molar units.

Task item: Consider the compound C[N+](C)(C)[C@@H](Cc1c[nH]c(=S)[nH]1)C(=O)[O-] [ergothioneine] and give its measured pKd.
Reply: 5.49
